Experimental system: Rhodesain (Trypanosoma brucei rhodesiense) (UniProt Q95PM0)
Sequence (Q95PM0 1-450): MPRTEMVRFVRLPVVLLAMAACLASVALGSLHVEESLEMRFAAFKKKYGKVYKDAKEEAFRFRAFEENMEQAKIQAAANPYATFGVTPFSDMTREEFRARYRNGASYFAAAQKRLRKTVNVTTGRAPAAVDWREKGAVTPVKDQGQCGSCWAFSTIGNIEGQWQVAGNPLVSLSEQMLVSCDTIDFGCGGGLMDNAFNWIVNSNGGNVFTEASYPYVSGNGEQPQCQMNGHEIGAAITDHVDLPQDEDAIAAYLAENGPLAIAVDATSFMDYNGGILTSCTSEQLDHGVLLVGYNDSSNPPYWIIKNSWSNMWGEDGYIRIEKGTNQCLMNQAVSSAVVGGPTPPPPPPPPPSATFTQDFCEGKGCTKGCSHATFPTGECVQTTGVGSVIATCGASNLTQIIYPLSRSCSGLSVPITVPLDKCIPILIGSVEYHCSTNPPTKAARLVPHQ
Method summary: Inhibition of Trypanosoma brucei rhodesain expressed in Pichia pastoris at 20 uM using Z-phe-Arg-AMC as substrate preincubated for 1 hr followed by substrate addition by fluorescence assay
Active and inactive are the calls of the source. The calls are words filed in the database; no cut-off is given here.
Result category, one only: active, inactive

Example entries begin here.
Compound	Assigned category
CC1(C)C2CC[C@]1(C)C(NC(=O)Cc1ccc(OC/C=C/S(=O)(=O)c3ccccc3)cc1)C2 (some centres undefined)	inactive
CC1(C)C2CC=C(COC(=O)Cc3ccc(OC/C=C/S(=O)(=O)c4ccccc4)cc3)C1C2 (centres undefined)	inactive
O=C(N[C@H](/C=C/S(=O)(=O)c1ccccc1)CCc1ccccc1)c1cccc2cccnc12	active
CC1(C)[C@H]2CC=C(CCOC(=O)Cc3ccc(OC/C=C/S(=O)(=O)c4ccccc4)c(Cl)c3)[C@@H]1C2	inactive
CC1(C)C2CC=C(CCOC(=O)Cc3ccc(OC/C=C/S(=O)(=O)c4ccccc4)cc3F)C1C2 (centres undefined)	inactive
C[C@H](OC(=O)Cc1ccc(OC/C=C/S(=O)(=O)c2ccccc2)cc1)c1ccc2ccccc2c1	inactive

Query: Answer briefly: the call reported for CC(C)CCC[C@@H](C)[C@H]1CC[C@H]2[C@@H]3CC[C@H]4C[C@@H](OC(=O)Cc5ccc(OC/C=C/S(=O)(=O)c6ccccc6)cc5)CC[C@]4(C)[C@H]3CC[C@]12C in this assay.
Response: inactive

Query: Answer briefly: the call reported for CCCN1CCC(NC(=O)Cc2ccc(OC/C=C/S(=O)(=O)c3ccccc3)cc2)CC1 in this assay.
Response: inactive

Query: Answer briefly: the call reported for CC1(C)[C@@H]2CC[C@@](C)(C2)[C@@H]1OC(=O)Cc1ccc(OC/C=C/S(=O)(=O)c2ccccc2)cc1 in this assay.
Response: inactive

----------
// reported IC50 for each item listed
Test system: HepG2
Method summary: Cytotoxicity against human HepG2 cells assessed as decrease in cell viability after 72 hrs by MTT assay
Format: cell-based
Condition set: HepG2, 72 h

Molecule	Readout type	Measured value
CC1=C[C@@H](OC(=O)Cc2ccc(OC/C=C/S(=O)(=O)c3ccccc3)cc2)C2C[C@H]1C2(C)C	IC50	> 20 µM
O=C(Cc1ccc(OC/C=C/S(=O)(=O)c2ccccc2)cc1)Nc1cccc2cccnc12	IC50	> 80 µM
C[C@H](OC(=O)Cc1ccc(OC/C=C/S(=O)(=O)c2ccccc2)cc1)c1ccc2ccccc2c1	IC50	> 20 µM
O=C(Cc1ccc(OC/C=C/S(=O)(=O)c2ccccc2)cc1)Oc1ccc2cc(Br)ccc2c1	IC50	> 80 µM
CC1(C)C2CC=C(CCOC(=O)Cc3ccc(OC/C=C/S(=O)(=O)c4ccccc4)cc3F)C1C2 (stereo unspecified)	IC50	> 20 µM

Query molecule follows.
Query: Fill in the blank: the reported IC50 of CC1(C)[C@@H]2CC[C@@](C)(C2)[C@@H]1OC(=O)Cc1ccc(OC/C=C/S(=O)(=O)c2ccccc2)cc1 is ____.
Response: 11.9 µM
